Ref: patent US6670400B1

# TGT: 5-HT1A receptor (Rattus norvegicus, UniProt P19327)
# Sequence (P19327 1-422): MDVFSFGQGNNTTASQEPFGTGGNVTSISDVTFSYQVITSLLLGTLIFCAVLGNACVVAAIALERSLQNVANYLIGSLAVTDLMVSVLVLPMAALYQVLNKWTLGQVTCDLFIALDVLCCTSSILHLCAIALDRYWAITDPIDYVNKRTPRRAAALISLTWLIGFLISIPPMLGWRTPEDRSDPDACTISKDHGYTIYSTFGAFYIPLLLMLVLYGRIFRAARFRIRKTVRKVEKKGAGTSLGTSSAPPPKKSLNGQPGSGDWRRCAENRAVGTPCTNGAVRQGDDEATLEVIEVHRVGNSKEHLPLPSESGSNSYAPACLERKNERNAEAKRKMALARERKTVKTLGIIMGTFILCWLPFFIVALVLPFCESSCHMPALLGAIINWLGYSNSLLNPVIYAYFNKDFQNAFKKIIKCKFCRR
ASSAY ENDPOINT: Ki (nM)
One number for each entry, in nM.

Would you mind listing Ki for each of the following compounds?
1. COc1ccccc1OCCNCCCCNC(=O)C1CCCCC1
2. CCOc1ccccc1OCCNCCCCNC(=O)C(C)(C)C
3. COc1ccccc1OCCNCCCCNC(=O)C12CC3CC(CC(C3)C1)C2
4. COc1cccc(C(=O)NCCCCNCCOc2ccccc2OC)c1
5. COc1ccccc1OCCNCCCCNC(=O)c1ccccc1
6. COc1ccccc1OCCNCCCCNC(=O)c1cccc(I)c1
7. CSc1ccccc1OCCNCCCCNC(=O)c1ccccc1

[0.087, 0.77, 0.1, 1.6, 0.2, 0.44, 0.71]

Report Ki for `COc1ccccc1OCCNCCCCNC(=O)C1(C)CCCCC1` please.
0.14
